# System: S. aureus biofilm
# Type: cell-based
# assay conditions: concentration that reduced biofilm growth by 50%
Peptide text beside a SMILES is read from it.
observation type: MBIC50 S. aureus (µg/mL)
All answers are understood in µg/mL, so give the number only.

INSERT INTO measurements (compound, unit_text, measured_value) VALUES
  ('CC[C@H](C)[C@H](NC(=O)[C@H](CCCNC(=N)N)NC(=O)[C@@H](NC(=O)[C@H](CCCCN)NC(=O)[C@@H](NC(=O)[C@@H](NC(=O)[C@H](CC(C)C)NC(=O)[C@H](CCCNC(=N)N)NC(=O)[C@@H](N)C(C)C)[C@@H](C)CC)C(C)C)C(C)C)C(=O)N[C@@H](CCCNC(=N)N)C(=O)N[C@@H](CCCNC(=N)N)C(=O)N[C@@H](CCCNC(=N)N)C(N)=O [Peptide 2003] (H-VRLIVKVRIRRR-NH2; N-terminus assumed)', 'µg/mL', 20);

// next entry
Query string: Bench note: what MBIC50 S. aureus did CC[C@H](C)[C@H](NC(=O)[C@H](CCCNC(=N)N)NC(=O)[C@@H](NC(=O)[C@H](CCCNC(=N)N)NC(=O)[C@@H](NC(=O)[C@@H](NC(=O)[C@H](CC(C)C)NC(=O)[C@H](CCCNC(=N)N)NC(=O)[C@@H](N)C(C)C)[C@@H](C)CC)C(C)C)C(C)C)C(=O)N[C@@H](Cc1c[nH]c2ccccc12)C(=O)N[C@@H](CCCNC(=N)N)C(=O)N[C@@H](CCCNC(=N)N)C(N)=O [Peptide 2005] (H-VRLIVRVRIWRR-NH2; N-terminus assumed) show?
Result string: 10

Recorded values, source patent US20190315823A1.
